assay: Pharmacokinetic evaluation with intravenous or oral administration; format: in vivo; settings: rat, plasma; rats, oral administration, 2.5 mg/kg
reportedMetric: AUC(0-t)

Prompt: Could you share which AUC(0-t) value was measured for Cc1ccc(-n2nccn2)c(C(=O)N2CCN(c3nc4ccc(F)cc4c(=O)[nH]3)CCC2C)c1 (stereo not shown) ?
Response: 1770 ng·h/mL
